// reported ED50 (μg) per item
# Tested on: preretinal neovascularization
# PROCEDURE_TEXT: Rat oxygen-induced retinopathy (OIR) model, regression
# Assay type: in vivo
# TEST_PARAMETERS: dose-response, single ivt injection
Entry rule: numbers only, all in µg.

Below: 3 compounds and their reported ED50 (μg).
[[record]]
structure_string = "Cc1cccc(NC(=O)Nc2ccc(-c3csc4c(-c5cccnc5)cnc(N)c34)cc2)c1"
target_or_system = "preretinal neovascularization"
result = 9.42

[[record]]
structure_string = "Cc1cccc(NC(=O)Nc2ccc(-c3csc4ncnc(N)c34)cc2)c1"
target_or_system = "preretinal neovascularization"
result = 9.13

[[record]]
structure_string = "Cc1cccc(NC(=O)Nc2ccc(-c3csc4c(-c5ccncc5)cnc(N)c34)cc2)c1"
target_or_system = "preretinal neovascularization"
result = 17.82


Q. Return reported ED50 (μg); argument: Cc1cccc(NC(=O)Nc2ccc(-c3cncc4[nH]nc(N)c34)cc2)c1
A. 9.13

* * *

# System: VEGF-induced retinal vascular permeability
# PROCEDURE_TEXT: VEGF-induced retinal vascular permeability in the rat, intravitreal delivery
# Assay type: in vivo
# TEST_PARAMETERS: inhibition of VEGF-induced RVP vs vehicle-injected controls, single ivt injection of 1% suspension; *P<0.05
OUTCOME_MEASURE: Efficacy (1%)
Entry rule: numbers only, all in %.

Below: 2 molecules and their reported Efficacy (1%).
[[record]]
structure_string = "COCCOc1ccc(-c2ccc(NC(=O)Nc3cccc(C)c3)cc2)c2c(N)n[nH]c12"
target_or_system = "VEGF-induced retinal vascular permeability"
result = "−148.2"

[[record]]
structure_string = "Cc1cc(O)cc(NC(=O)Nc2ccc(-c3cccc4[nH]nc(N)c34)cc2)c1"
target_or_system = "VEGF-induced retinal vascular permeability"
result = "−316.9"


Q. Return reported Efficacy (1%); argument: Cc1cccc(NC(=O)Nc2ccc(-c3csc4ccnc(N)c34)cc2)c1
A. 40.4
